tested on: rodent lifetime carcinogenesis bioassay, tumor incidence TD50; assay: carcinogenic potency in animals, long-term in vivo studies, CPDB compilation (AID 1745844); details: rat; strain ACI; males; in feed; site: forestomach; lesion: papilloma; dosed 52 weeks; study length 52 weeks
recorded-endpoint: TD50 (mg/kg/day)

INSERT INTO results (smiles_entry, target_of_assay, recorded_value) VALUES
  ('[Na+]', 'rodent lifetime carcinogenesis bioassay, tumor incidence TD50', 2660);

----------
system: rodent lifetime carcinogenesis bioassay, tumor incidence TD50; test: carcinogenic potency in animals, long-term in vivo studies, CPDB compilation (AID 1745844); conditions: rat; strain Charles River CD (Sprague-Dawley); males; in feed; site: liver; lesion: several types; types named in the paper; dosed 64 weeks; study length 73 weeks
recorded-endpoint: TD50 (mg/kg/day)

INSERT INTO measurements (smiles_entry, recorded_endpoint, recorded_value) VALUES
  ('Cc1ccc(N)cc1N', 'TD50', 26.2);
